- targetOrSystem: T1, human IGF-1R(1-903)-Fc (human, UniProt P08069 31-933)
- T1 construct: also called hIGF-1R-Fc; SDWT; not shown: human IgG1 Fc, C-terminal tag
- T1 sequence (P08069 31-933): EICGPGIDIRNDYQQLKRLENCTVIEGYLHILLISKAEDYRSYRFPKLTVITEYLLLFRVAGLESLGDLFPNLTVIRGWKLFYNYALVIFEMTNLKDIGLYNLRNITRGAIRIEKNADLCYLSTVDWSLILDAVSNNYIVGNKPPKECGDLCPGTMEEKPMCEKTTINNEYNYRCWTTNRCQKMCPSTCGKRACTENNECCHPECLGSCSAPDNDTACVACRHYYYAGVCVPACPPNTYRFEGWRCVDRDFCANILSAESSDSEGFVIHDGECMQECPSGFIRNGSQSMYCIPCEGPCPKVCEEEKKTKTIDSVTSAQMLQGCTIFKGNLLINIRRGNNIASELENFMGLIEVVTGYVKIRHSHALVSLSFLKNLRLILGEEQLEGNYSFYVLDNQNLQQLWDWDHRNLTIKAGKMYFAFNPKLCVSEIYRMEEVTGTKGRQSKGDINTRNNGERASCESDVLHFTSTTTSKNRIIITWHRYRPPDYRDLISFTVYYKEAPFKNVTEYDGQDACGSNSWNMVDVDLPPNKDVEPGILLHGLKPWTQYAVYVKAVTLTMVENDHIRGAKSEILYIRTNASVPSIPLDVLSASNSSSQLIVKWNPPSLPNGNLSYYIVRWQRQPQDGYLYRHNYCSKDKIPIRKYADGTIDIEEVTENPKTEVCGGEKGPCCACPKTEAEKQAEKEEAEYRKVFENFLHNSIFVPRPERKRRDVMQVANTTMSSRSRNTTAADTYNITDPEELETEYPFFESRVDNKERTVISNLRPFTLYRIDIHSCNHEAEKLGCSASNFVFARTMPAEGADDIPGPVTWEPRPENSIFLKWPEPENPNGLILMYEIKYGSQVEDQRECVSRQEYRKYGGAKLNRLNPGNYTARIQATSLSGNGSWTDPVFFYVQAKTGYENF
- assayRemarks: biolayer interferometry (Octet), IGF-1R Fc on Protein A sensors, scFv culture supernatant
- Design: unit not given here
propertyMeasured: Kd (1/sec), off-rate as tabulated (XWU092 = 1.00)

| binder | dataValue |
| --- | --- |
| MJF014, C06 (VL/GS3/VH) scFv with VL M4L (scFv, Kabat positions) scFv: DIQLTQSPLSLSASVGDRVTITCQASRDIRNYLNWYQQKPGKAPKLLIYDASSLQTGVPSRFGGSGSGTDFSFTIGSLQPEDIATYYCQQFDSLPHTFGQGTKLEIKGGGGSGGGGSGGGGSEVQLLESGGGLVQPGGSLRLSCAASGFTFSIYRMQWVRQAPGKGLEWVSGISPSGGTTWYADSVKGRFTISRDNSKNTLYLQMNSLRAEDTAVYYCARWSGGSGYAFDIWGQGTMVTVSSDDDKSFLEQKLISEEDLNSAVDHHHHHH | 0.86 |
